# System: HT29 colon
# test.details: NCI-60 one-dose screen, 48 h
# experimental.context: 10 µM unless noted
Compounds without any hit were thinned out: in the full panel of roughly 83,000, 20% have a hit. Activity calls are given as the source filed them. How the source made its calls: active means growth percent below 10; inactive means the rest.
Answer with one of the outcomes active, inactive

{"molecule": "C/C(=C(/c1ccc(Cl)cc1)c1ccc(OCCN2CCCCC2)cc1)c1ccccc1", "classification": "active"}
{"molecule": "CCCCCCCC(=O)SCC/C=C/[C@@H]1CC(=O)NCc2cc(ccn2)C2=N[C@@](C)(CS2)C(=O)N[C@@H](C(C)C)C(=O)O1", "classification": "active"}
{"molecule": "C=C1C(=O)O[C@H]2[C@H]1CC/C(CNC(=O)c1cc3cc(OC)ccc3[nH]1)=C\\CC[C@@]1(C)O[C@@H]21", "classification": "active"}
{"molecule": "COC(=O)C1CCc2sc3ncnc(Nc4cn[nH]c4C(=O)Nc4ccc(CN5CCN(C)CC5)cc4)c3c21 (stereo not drawn)", "classification": "active"}
{"molecule": "Cc1cc(N(CCNc2ccnc3cc(Cl)ccc23)Cc2ccc3c(c2)OCO3)nc(N2CCCC2)n1", "classification": "active"}

[in] Could you check what this test reported for CCn1cc(-c2ccnc3[nH]c(-c4cccc(CN(C)C)c4)cc23)c(-c2ccc(NC(=O)N(C)C)cc2)n1 ?
[out] active

[in] Could you check what this test reported for O=c1[nH]c([C@@H]2CCCN2)nc2c1oc1ccc(Cl)cc12 ?
[out] inactive

[in] Could you check what this test reported for C=CC[n+]1c(/C=C/C=C2\N(C)c3ccccc3C2(C)C)sc2ccc(OC)cc21 ?
[out] active

[in] Could you check what this test reported for Cc1ccccc1N1C(c2ccccc2)=NNC12C=CC(=O)C=C2Cl (stereo not drawn) ?
[out] inactive

[in] Could you check what this test reported for Cn1c(=O)c(F)c(Nc2ccc(I)cc2F)c2c(=O)n(C[C@@H](O)CO)cnc21 ?
[out] active

[in] Could you check what this test reported for CCc1nc(C(N)=O)c(Nc2ccc(N3CCC(N4CCN(C)CC4)CC3)c(OC)c2)nc1NC1CCOCC1 ?
[out] active

[in] Could you check what this test reported for CCS(=O)(=O)N1CCN(c2ccc(Nc3ncc(C(N)=O)c(NC4CC4)n3)cc2)CC1 ?
[out] inactive

[in] Could you check what this test reported for C=C1C[C@H](O)[C@H](Br)C(C)(C)[C@@]12CCC(C)=C(Cl)C2 ?
[out] active

[in] Could you check what this test reported for O=C(COc1cccc(/C=C2\Cc3ccc(Cl)cc3C2=O)c1)Nc1nccs1 ?
[out] inactive
